- Test system: IGROV1 ovarian
- Protocol notes: NCI-60 one-dose screen, 48 h (100 = growth as untreated, 0 = no growth, -100 = all killed)
- Run conditions: 10 µM unless noted
About 83,000 compounds went through this panel and 20% of them were active in at least one assay; those are over-represented in the sample as a whole. Activity calls are given as the source filed them. The calls were made as follows: active = growth percent below 10; inactive = the rest.
growth by entry:

Example compounds with recorded growth:
Compound: Cn1ccnc1C(=O)/C=C/c1ccc(NC(=O)c2c(F)c(F)c(F)c(F)c2F)cc1
Endpoint label: growth
Result value: 98.9% (inactive)
--
Compound: COc1cc(-c2nn(C(C)(C)C)cc2-c2ccnc(NCCCNS(=O)(=O)c3ccc(Cl)cc3)n2)ccc1Cl
Endpoint label: growth
Result value: 50.8% (inactive)
--
Compound: Oc1cccc2ccc(-c3nnc(SCc4ccc(O)c5ncccc45)n3-c3ccccc3)nc12
Endpoint label: growth
Result value: 11.2% (inactive)
--
Compound: COc1c(N2CC3CCCNC3C2)c(F)cc2c(=O)c(C(=O)N/N=C/c3ccc(N(C)C)cc3)cn(C3CC3)c12 (stereo not drawn)
Endpoint label: growth
Result value: 58.9% (inactive)
--
Compound: O=S(=O)(Nc1cccc2ccccc12)c1ccc(-c2cnc(C3CC3)o2)cc1
Endpoint label: growth
Result value: 23.4% (inactive)
--
Compound: Nc1ncc(-c2ccc3ncnc(N4CCc5cc(F)c(F)cc54)c3c2)cn1
Endpoint label: growth
Result value: -6.07% (active)
--
Compound: CCCC(=O)NC(c1cccnc1)c1cc(C(C)(C)C)c2cccnc2c1O (stereo not drawn)
Endpoint label: growth
Result value: 6.31% (active)
--
Compound: COc1c(N2CC3CCCNC3C2)c(F)cc2c(=O)c(C(=O)N/N=C/c3ccc(Br)cc3)cn(C3CC3)c12 (stereo not drawn)
Endpoint label: growth
Result value: 75.2% (inactive)
--
Compound: C=C1CC[C@@H]2[C@](C)(CO)[C@H](O)CC[C@@]2(C)[C@@H]1C/C(O)=C1\CCOC1=O
Endpoint label: growth
Result value: 107% (inactive)
--
Compound: c1cn2c(ccc3nc(-c4cn[nH]c4)c4c(c32)CCCC4)n1
Endpoint label: growth
Result value: 45.3% (inactive)

Request: Notebook entry, IGROV1 ovarian assay: growth of COc1ccc(C2CC(c3ccc(Nc4nc(NCCO)nc(N5CCOCC5)n4)cc3)=Nc3c(N)nc(N)nc3N2)cc1 (stereo not drawn) = ?
Result: 105% (inactive)

Request: Notebook entry, IGROV1 ovarian assay: growth of COC(=O)C1(C)CCC[C@]2(C)[C@H]3C[C@H]4C(C(C)C)=C[C@]3(CC[C@@H]12)[C@H]1[C@@H]4[C@@H](OC(=O)c2ccco2)CC[C@@H]1OC(=O)c1ccco1 (stereo partly drawn) = ?
Result: 99.4% (inactive)

Request: Notebook entry, IGROV1 ovarian assay: growth of Cc1ccc(CSc2nc(-c3ccc(Cl)cc3)c(C#N)c(N3CCOCC3)n2)cc1 = ?
Result: 106% (inactive)

Request: Notebook entry, IGROV1 ovarian assay: growth of CCNC(=O)Oc1ccc(/C(=C(/C)c2ccccc2)c2ccc(OCCN3CCCCCC3)cc2)cc1 = ?
Result: 32.9% (inactive)

Request: Notebook entry, IGROV1 ovarian assay: growth of CC1(C)[C@@H](O)CC[C@]2(C)[C@H]3CC[C@@H]4[C@H]5[C@H](C(=O)/C=C\c6ccncc6)CC[C@]5(O)CC[C@@]4(C)[C@]3(C)CC[C@@H]12 = ?
Result: 37.3% (inactive)

Request: Notebook entry, IGROV1 ovarian assay: growth of N#C/C(=C\c1ccc(-c2ccc(Cl)cc2Cl)o1)c1ccc(F)cc1 = ?
Result: 86.5% (inactive)

Request: Notebook entry, IGROV1 ovarian assay: growth of CCCCCc1ccc(S(=O)(=O)Nc2cccc(-c3csc(NCCN4CCN(C)CC4)n3)c2)cc1 = ?
Result: 79.9% (inactive)

Request: Notebook entry, IGROV1 ovarian assay: growth of CC(=O)C1=C(C)NC(NN)=NC1c1cccc(Cl)c1 (stereo not drawn) = ?
Result: 97.7% (inactive)
